- target: Prostaglandin G/H synthase 2 (Homo sapiens)
- Sequence (P35354 whole entry): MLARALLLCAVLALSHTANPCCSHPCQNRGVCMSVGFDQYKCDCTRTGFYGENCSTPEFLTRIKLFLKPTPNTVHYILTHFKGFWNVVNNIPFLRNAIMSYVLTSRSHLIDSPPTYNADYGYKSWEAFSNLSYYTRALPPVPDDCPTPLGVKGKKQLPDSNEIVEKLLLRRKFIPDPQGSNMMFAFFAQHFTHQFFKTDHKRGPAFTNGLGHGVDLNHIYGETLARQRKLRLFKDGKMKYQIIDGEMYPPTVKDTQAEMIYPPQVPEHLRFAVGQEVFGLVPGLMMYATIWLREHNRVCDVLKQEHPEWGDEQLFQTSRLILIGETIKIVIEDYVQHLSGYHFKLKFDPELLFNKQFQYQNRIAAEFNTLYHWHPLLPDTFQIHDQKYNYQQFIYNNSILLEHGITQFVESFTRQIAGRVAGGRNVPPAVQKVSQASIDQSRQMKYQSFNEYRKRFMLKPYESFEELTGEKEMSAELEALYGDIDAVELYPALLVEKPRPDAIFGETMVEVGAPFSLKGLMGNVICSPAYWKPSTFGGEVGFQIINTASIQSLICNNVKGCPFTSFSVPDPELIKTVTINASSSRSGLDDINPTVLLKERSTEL
- measurement_protocol: Inhibitory activity against human Prostaglandin G/H synthase 2 expressed in sf-9 cells infected with baculovirus
Measured IC50 of individual entries
Numeric only. Scale: nM

See these solved cases before continuing.
{"line_notation": "COc1ccc(-c2cc(C(F)(F)F)nn2-c2ccc(S(C)(=O)=O)c(CO)c2)cc1", "target": "Prostaglandin G/H synthase 2 (Homo sapiens)", "reported": 3200}
{"line_notation": "NS(=O)(=O)c1ccc(-n2nc(C(F)(F)F)cc2-c2ccc(Br)cc2)cc1CO", "target": "Prostaglandin G/H synthase 2 (Homo sapiens)", "reported": 592}
{"line_notation": "NS(=O)(=O)c1ccc(-n2nc(C(F)(F)F)cc2-c2cccc(Cl)c2)cc1CO", "target": "Prostaglandin G/H synthase 2 (Homo sapiens)", "reported": 1950}
{"line_notation": "CCC(=O)OCc1cc(-n2nc(C(F)(F)F)cc2-c2ccc(C)cc2)ccc1S(N)(=O)=O", "target": "Prostaglandin G/H synthase 2 (Homo sapiens)", "reported": 570}
{"line_notation": "COc1ccc(-c2cc(C(F)(F)F)nn2-c2ccc(S(N)(=O)=O)c(CO)c2)cc1", "target": "Prostaglandin G/H synthase 2 (Homo sapiens)", "reported": 365}

Q: Field request: IC50 | item: NS(=O)(=O)c1ccc(-n2nc(C(F)(F)F)cc2-c2ccccc2)cc1CO
A: 3450

Q: Let us now turn to NS(=O)(=O)c1ccc(-n2nc(C(F)(F)F)cc2-c2ccc(Cl)cc2)cc1CO
A: 712

Q: Let us now turn to NS(=O)(=O)c1ccc(-n2nc(C(F)(F)F)cc2-c2ccccc2Cl)cc1CO
A: 6300

Q: Let us now turn to CCOc1ccc(-c2cc(C(F)(F)F)nn2-c2ccc(S(N)(=O)=O)c(CO)c2)cc1
A: 901

Q: Let us now turn to Cc1cccc(-c2cc(C(F)(F)F)nn2-c2ccc(S(N)(=O)=O)c(CO)c2)c1
A: 728

Q: Let us now turn to NS(=O)(=O)c1ccc(-n2nc(C(F)(F)F)cc2-c2ccccc2F)cc1CO
A: 3300

Q: Let us now turn to CC(=O)NCc1cc(-n2nc(C(F)(F)F)cc2-c2ccc(C)cc2)ccc1S(N)(=O)=O
A: 6850

Origin of the recorded values: ChEMBL document CHEMBL1147406
